# protocol_notes: In vitro cell viability assay
# Assay type: cell-based
# measurement_setup: human, SH-SY5Y cells
property_measured: viability at 48 h, 100 μmol/L

• COc1cc(/C=C2\SC(=O)NC2=O)cc(F)c1OCCNc1nc2c(cnn2C2CCCC2)c(=O)[nH]1 [Compound 11c] = 57%
• COc1cc(CC2SC(=O)NC2=O)cc(F)c1OCCNc1nc2c(cnn2C2CCCC2)c(=O)[nH]1 (stereo not shown) [Compound 14c] = 62%
• O=C1NC(=O)/C(=C/c2ccc(OCCNc3nc4c(cnn4C4CCCC4)c(=O)[nH]3)c(F)c2)S1 [Compound 11a] = 34%
• O=C1NC(=O)C(Cc2ccc(OCCNc3nc4c(cnn4C4CCCC4)c(=O)[nH]3)c(F)c2)S1 (stereo not shown) [Compound 14a] = 52%
